# system.under.test: human recombinant histamine H2 receptor (Homo sapiens)
# Construct: expressed in transfected cells; host or cells: CHO-K1 cells
# Sequence (P25021 whole entry): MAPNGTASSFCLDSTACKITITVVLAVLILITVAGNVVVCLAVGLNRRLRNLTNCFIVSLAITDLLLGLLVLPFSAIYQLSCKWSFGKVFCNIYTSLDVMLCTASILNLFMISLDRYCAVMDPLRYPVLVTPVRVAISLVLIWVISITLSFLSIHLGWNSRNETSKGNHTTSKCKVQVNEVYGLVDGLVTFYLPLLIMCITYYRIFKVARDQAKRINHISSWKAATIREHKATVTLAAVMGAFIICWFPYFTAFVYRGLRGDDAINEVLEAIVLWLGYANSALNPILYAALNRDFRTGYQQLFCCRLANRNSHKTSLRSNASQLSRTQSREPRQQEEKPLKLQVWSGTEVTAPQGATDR
# protocol: Histamine H2 radioligand binding ([125I]Aminopotentidine)
# condition.notes: 1 μM compound; 0.1 nM [125I]Aminopotentidine; read-out: Histamine Binding H2, percent inhibition of specific binding
measured.parameter: inhibition at 1 µM (%)
Note: unit % is implicit; provide only the numeric part.

[in] Give the value of inhibition at 1 µM reported for the following: Cc1ccc2c(c1)c1c(n2CCc2ccc(C(=O)O)nc2)CCN(C)C1
[out] -15

[in] Identify inhibition at 1 µM associated with the molecule CCN1CCc2c(c3cc(C)ccc3n2CCc2ccccn2)C1
[out] 28

[in] Provide only the value of recorded inhibition at 1 µM for CN1CCc2c(c3cc(Cl)ccc3n2CCc2ccccn2)C1
[out] 34

[in] Return inhibition at 1 µM for the following molecule: CN1Cc2c(n(CCc3noc(-c4ccc(Cl)cc4)n3)c3ccc(Cl)cc23)CC12CC2
[out] 87

[in] Respond only with inhibition at 1 µM recorded for CN1CCc2c(c3cc(Cl)ccc3n2CC(=O)N2CCCC2)C1
[out] 17

[in] Write down inhibition at 1 µM measured for item Cc1ccc2c(c1)c1c(n2CCc2ccncc2)CCN(C)C1
[out] 49

[in] Give the reported value of inhibition at 1 µM for this record: Cc1ccc2c(c1)c1c(n2CCc2ccccc2F)CCN(C)C1
[out] 89

[in] Given Cc1ccc2c(c1)c1c(n2CCc2ccccc2)CCN(C2CC2)C1 , respond with its inhibition at 1 µM.
[out] 54

[in] For CCN1CCc2c(c3ccccc3n2Cc2ccccc2)C1 , write its inhibition at 1 µM.
[out] 3
